In this section we review reported fold difference in affinity vs original values for a set of binders.
target: T1, IL-1β (UniProt P01584 117-269); assay: Biacore, periplasmic extract
T1 construct: Antigen immobilised on the Biacore chip
Please state the figure in fold; there is no need to write the unit.

fold difference in affinity vs original recorded for this binder, XPA23 light chain D28R (Fab, V domains shown) VH: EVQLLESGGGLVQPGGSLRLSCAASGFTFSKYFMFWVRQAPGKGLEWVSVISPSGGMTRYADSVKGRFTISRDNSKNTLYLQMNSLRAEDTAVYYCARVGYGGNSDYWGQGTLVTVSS VL: DIQMTQSPSSVSASVGDRLTIICRASQRINRWLAWYQQTPGNAPKLLIHSATSLQSGVPSRFSGSGSGTDFTLTINSLQPEDFATYYCQQADSFPLTFGGGTKVEIK , is 0.94

# context switch: different binder, same fold difference in affinity vs original
The binder identified as XPA23 light chain R31D (Fab, V domains shown) VH: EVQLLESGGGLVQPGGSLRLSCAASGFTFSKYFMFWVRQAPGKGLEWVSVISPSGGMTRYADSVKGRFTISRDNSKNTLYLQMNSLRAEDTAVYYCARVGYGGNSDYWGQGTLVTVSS VL: DIQMTQSPSSVSASVGDRLTIICRASQDINDWLAWYQQTPGNAPKLLIHSATSLQSGVPSRFSGSGSGTDFTLTINSLQPEDFATYYCQQADSFPLTFGGGTKVEIK registered its fold difference in affinity vs original at 11.1

These measurements were taken from patent US20110118131A1.
